assay_system: T1, huCD4-HIS (human, UniProt P01730 26-390, limits assumed)
T1 construct: Named only in the head of the Ibalizumab ELISA binning column; Neither the source nor the construct limits are told in this stretch; not shown: HIS tag
assay_explanation: ELISA binning, competitor Ibalizumab; 100 ng/mL huCD4-HIS, anti-HIS HRP detection; background 45, max binding 3000000

# binder, Ibalizumab ELISA binning signal
rows = [
    ("75110_01H18A (antibody, V domains shown, Tested as non-clonal hybridoma supernatant from AlivaMab Mouse Kappa mice, detected with anti-mouse Fc and anti-human Kappa) VH: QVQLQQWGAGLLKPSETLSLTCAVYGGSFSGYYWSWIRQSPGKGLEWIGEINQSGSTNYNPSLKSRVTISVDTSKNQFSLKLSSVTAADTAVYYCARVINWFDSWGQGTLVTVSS VL: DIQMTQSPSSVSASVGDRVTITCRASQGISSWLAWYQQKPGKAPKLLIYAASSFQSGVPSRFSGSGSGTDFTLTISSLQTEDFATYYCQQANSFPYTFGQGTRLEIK", 385000),
    ("75110_08H11A (antibody, V domains shown, Tested as non-clonal hybridoma supernatant from AlivaMab Mouse Kappa mice, detected with anti-mouse Fc and anti-human Kappa) VH: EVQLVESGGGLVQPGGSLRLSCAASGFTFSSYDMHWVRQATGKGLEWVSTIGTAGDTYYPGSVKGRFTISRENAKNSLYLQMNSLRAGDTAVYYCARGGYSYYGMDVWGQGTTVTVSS VL: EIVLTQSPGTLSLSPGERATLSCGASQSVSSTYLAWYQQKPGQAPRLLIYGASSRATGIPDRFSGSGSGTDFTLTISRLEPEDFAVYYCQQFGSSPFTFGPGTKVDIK", 869000),
    ("75110_10K21A (antibody, V domains shown, Tested as non-clonal hybridoma supernatant from AlivaMab Mouse Kappa mice, detected with anti-mouse Fc and anti-human Kappa) VH: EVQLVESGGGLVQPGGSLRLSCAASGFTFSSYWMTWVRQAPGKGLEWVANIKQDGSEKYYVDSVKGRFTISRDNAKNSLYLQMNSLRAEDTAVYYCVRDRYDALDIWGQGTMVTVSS VL: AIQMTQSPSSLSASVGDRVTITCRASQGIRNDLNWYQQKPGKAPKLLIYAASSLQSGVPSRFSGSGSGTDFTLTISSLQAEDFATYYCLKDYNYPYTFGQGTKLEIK", 293000),
]

This collection of values is drawn from patent US20220112288A1.
